Target: T1, GLP-1R (INS1e assay) (UniProt P32301 22-463, limits assumed)
T1 sequence (looked up): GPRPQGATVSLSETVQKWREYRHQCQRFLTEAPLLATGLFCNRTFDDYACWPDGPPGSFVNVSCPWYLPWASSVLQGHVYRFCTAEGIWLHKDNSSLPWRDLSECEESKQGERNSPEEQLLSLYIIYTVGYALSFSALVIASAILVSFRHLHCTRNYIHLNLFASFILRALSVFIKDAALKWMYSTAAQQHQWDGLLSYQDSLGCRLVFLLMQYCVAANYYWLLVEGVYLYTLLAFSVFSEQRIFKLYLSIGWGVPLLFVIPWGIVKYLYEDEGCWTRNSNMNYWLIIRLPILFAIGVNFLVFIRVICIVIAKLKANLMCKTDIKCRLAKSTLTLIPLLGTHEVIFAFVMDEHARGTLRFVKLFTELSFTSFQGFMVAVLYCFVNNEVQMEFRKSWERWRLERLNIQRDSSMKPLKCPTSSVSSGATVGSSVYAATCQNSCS
Assay: cell-based or functional assay
Starred links: 1 amine or outer side, 2 acyl side, 3 side chain; linkers in the order of their positions; H or OH if unused. Non-standard residues stand in square brackets, D forms with d. Groups on a side chain read outwards from the residue. Primed or numbered codes have the meaning given here. No end group written: not given here. *: point of attachment. Dodecanoyl(12-OPh(4-COOH)) = O=C(O)c1ccc(OCCCCCCCCCCCC(=O)*)cc1; γGlu = O=C(O)[C@H](CCC(=O)[*:2])N[*:1]; Stearoyl = CCCCCCCCCCCCCCCCCC(=O)*; αMeF = C[C@](N)(Cc1ccccc1)C(=O)O; αMeK = C[C@](N)(CCCCN)C(=O)O; αMeS = C[C@](N)(CO)C(=O)O; PEG2′ = not defined here; Aib = CC(C)(N)C(=O)O
measure_name: INS1e assay EC50 GLP-1 R n1 (nM)
Quick note: give the figure in nM, leave out the unit.

## Task I am curious: what INS1e assay EC50 GLP-1 R n1 value has been reported for H[Aib]EGS[αMeF]TSDV[αMeS]S[αMeF]LEGEAAK([PEG2′-Dodecanoyl(12-OPh(4-COOH))])E[αMeF]IA[αMeF]VV[αMeK]GG-NH2 [SEQ ID NO 143] ?
## Result 0.0451

## Task I am curious: what INS1e assay EC50 GLP-1 R n1 value has been reported for H[Aib]EGS[αMeF]TSDV[αMeS]S[αMeF]LEGEAAEEFIK([PEG2′-PEG2′-γGlu-Stearoyl])WVVEGG-NH2 [SEQ ID NO 66] ?
## Result 45.6
